Quick reference for IC50 among some compounds
- target-of-assay: COX-2 (Homo sapiens, UniProt P35354)
- protocol: cell-based
- recorded-conditions: CHO[hCOX-2] cells, 10 μM AA, 15 min preincubation; read-out: COX-2 (IC50 mM) CHO
Report the figure in nM without appending any unit label.

Record CCC(C)(O)COc1ncc(C(F)(F)F)cc1-c1ccc(S(C)(=O)=O)cc1 (stereo not shown) . Reported IC50: 130

Sure, the documented IC50 for `CCC(O)(CC)[C@@H](C)Oc1ncc(C(F)(F)F)cc1-c1ccc(S(C)(=O)=O)cc1` is 200

Per the records, this compound ( `C[C@@H](O)CCOc1ncc(C(F)(F)F)cc1-c1ccc(S(C)(=O)=O)cc1` ) has IC50 equal to 200

====

- target-of-assay: COX-2 (Homo sapiens)
- Sequence (P35354 18-604): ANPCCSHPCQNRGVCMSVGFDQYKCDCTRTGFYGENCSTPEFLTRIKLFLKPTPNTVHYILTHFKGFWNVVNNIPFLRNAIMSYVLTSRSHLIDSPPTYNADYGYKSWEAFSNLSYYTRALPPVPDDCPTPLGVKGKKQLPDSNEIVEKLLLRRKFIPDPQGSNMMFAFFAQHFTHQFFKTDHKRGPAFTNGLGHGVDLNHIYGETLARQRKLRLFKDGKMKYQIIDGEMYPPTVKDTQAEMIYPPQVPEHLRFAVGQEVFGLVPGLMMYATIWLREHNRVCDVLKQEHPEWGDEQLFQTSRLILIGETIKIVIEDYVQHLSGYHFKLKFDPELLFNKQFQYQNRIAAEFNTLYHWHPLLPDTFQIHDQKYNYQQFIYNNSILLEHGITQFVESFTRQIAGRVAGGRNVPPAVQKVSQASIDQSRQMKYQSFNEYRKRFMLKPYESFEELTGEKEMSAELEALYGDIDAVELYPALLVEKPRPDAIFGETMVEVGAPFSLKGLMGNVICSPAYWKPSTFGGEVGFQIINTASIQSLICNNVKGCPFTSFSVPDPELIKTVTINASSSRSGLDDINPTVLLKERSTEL
- protocol: cell-based
- recorded-conditions: CHO[hCOX-2] cells, 10 μM AA, 15 min preincubation; read-out: COX-2 (IC50 mM) CHO
readout-type: IC50 (nM)
Please give a number only; it is taken to be in nM.

The measured IC50 associated with `C[C@H](CCO)Oc1ncc(C(F)(F)F)cc1-c1ccc(S(C)(=O)=O)cc1` reads 40

====

- target-of-assay: COX-2 (Homo sapiens)
- protocol: cell-based
- recorded-conditions: CHO[hCOX-2] cells, 10 μM AA, 15 min preincubation; read-out: COX-2 (IC50 mM) CHO
readout-type: IC50 (nM)
Write down the numeric answer in nM and omit the unit.

Some solved entries appear below for comparison.
{"smiles-text": "COCCOc1ncc(C(F)(F)F)cc1-c1ccc(S(C)(=O)=O)cc1", "target-of-assay": "COX-2 (Homo sapiens)", "result-value": 20}
{"smiles-text": "CC(C)(O)CSc1ncc(Cl)cc1-c1ccc(S(C)(=O)=O)cc1", "target-of-assay": "COX-2 (Homo sapiens)", "result-value": 40}

// recorded IC50 for `CCC(O)(CC)CSc1ncc(Cl)cc1-c1ccc(S(C)(=O)=O)cc1` : 70
